Target: Neu5Gc(a2-8)Neu5Gc(a2-6)Gal(b1-4)GlcNAc
Assay: glycan array binding signal (z-score within array); higher = stronger binding
Settings: glycan notation: IUPAC condensed, linker removed
The full list was thinned out, with the strongest signals kept by preference.
Entries and their glycan array binding signal (z-score) values follow.
Give the figure only, with no unit attached.

Epa15 (Candida glabrata) (protein) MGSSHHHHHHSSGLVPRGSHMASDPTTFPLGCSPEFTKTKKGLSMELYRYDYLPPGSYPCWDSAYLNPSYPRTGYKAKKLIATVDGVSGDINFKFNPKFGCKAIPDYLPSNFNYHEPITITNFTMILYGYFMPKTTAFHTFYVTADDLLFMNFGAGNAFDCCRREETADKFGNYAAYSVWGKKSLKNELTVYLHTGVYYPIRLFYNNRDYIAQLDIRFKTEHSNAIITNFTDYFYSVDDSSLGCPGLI = -0.395

Problem: What does the data say about its glycan array binding signal (z-score)? Entry: SfaEH (Escherichia coli), Q1RDG5 (protein) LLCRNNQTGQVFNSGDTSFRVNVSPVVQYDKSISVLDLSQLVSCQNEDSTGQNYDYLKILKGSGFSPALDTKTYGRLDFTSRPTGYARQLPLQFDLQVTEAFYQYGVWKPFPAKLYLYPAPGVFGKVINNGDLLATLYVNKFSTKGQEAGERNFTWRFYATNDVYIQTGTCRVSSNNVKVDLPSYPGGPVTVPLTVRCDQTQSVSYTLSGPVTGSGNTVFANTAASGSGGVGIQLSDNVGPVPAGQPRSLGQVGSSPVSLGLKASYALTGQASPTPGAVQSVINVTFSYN
Solution: 2.33

Problem: What does the data say about its glycan array binding signal (z-score)? Entry: HA-61200 (Pseudomonas aeruginosa), Q02SP8_PSEAB (protein) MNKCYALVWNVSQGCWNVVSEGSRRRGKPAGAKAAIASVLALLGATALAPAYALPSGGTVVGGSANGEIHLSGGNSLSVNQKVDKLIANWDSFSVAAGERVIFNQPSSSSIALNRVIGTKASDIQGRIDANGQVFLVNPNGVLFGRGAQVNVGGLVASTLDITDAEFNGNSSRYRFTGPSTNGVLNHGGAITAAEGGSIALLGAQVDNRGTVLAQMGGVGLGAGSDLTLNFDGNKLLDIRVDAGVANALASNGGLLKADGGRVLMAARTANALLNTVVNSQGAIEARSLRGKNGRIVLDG
Solution: -0.263

Problem: What does the data say about its glycan array binding signal (z-score)? Entry: Clone730PsrP (Streptococcus pneumoniae) (protein) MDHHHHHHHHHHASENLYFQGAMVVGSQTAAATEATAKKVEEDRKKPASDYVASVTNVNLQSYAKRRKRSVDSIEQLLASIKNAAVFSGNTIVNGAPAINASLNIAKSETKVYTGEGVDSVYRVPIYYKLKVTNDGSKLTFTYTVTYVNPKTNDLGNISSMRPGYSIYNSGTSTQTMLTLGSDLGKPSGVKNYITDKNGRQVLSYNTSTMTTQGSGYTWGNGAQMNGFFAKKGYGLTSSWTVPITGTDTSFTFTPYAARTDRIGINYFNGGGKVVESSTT
Solution: -0.41

Problem: What does the data say about its glycan array binding signal (z-score)? Entry: Mg1lysM (Mycosphaerella graminicola) (protein) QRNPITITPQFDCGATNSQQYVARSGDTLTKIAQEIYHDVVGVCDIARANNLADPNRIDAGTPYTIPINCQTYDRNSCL
Solution: -0.072

Problem: What does the data say about its glycan array binding signal (z-score)? Entry: Als3-41 (Candida albicans) (protein) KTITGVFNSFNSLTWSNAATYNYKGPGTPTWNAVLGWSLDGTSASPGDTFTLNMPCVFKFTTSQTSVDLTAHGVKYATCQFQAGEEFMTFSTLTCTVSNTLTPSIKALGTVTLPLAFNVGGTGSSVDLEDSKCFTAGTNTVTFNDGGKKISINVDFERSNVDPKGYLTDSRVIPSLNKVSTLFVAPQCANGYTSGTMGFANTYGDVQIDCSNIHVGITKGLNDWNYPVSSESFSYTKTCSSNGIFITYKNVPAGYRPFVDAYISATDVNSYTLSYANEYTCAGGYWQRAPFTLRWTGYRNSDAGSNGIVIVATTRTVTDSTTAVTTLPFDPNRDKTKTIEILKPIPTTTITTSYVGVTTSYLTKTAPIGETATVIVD
Solution: -0.217

Problem: What does the data say about its glycan array binding signal (z-score)? Entry: EfCBM33A (Enterococcus faecalis), Q838S1 (protein) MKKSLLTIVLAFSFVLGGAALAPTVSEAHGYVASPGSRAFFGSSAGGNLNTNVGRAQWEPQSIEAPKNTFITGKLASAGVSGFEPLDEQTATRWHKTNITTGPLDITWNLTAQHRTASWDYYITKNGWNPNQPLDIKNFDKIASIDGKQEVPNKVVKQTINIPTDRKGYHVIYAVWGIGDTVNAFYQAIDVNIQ
Solution: -0.736

Problem: What does the data say about its glycan array binding signal (z-score)? Entry: SSR2 (Sclerotium rolfsii) (protein) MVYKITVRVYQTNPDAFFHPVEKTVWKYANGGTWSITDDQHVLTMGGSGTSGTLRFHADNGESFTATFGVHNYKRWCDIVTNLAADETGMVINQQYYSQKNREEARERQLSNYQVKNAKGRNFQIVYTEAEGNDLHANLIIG
Solution: -0.286

These measurements were taken from the supplement of paper PMC8728848.
